assay: Quantitative High-Throughput drug screen in 47 multiple myeloma cell lines against the NCATS MIPE library collection: KMS28BM_JCRB cell viability assay (AID 1919874); conditions: CellTiter-Glo ATP, 48 h; series mostly up to 45.8 µM; also: nearly all actives have a fitted effect of over 35% in size
Records with an inconclusive call do not appear. The source made the active and inactive calls. Calls follow the shape of the dose curve; as a rule, active = well fitted cell-killing curve with a large enough effect; inconclusive = small, poorly fitted or top-dose-only effect, or effect the other way; inactive = no such curve, though single readings can be large or run the other way.
Pick one: t (active), f (inactive)

Worked set:
[[record]]
compound = "O=C(O)c1ccc(-c2cc3cccnc3c(-c3ccc4nonc4c3)n2)cc1"
category_label = "t"

[[record]]
compound = "O=C(O)C=Cc1ccc(O)c(O)c1"
category_label = "f"

[[record]]
compound = "NC(CO)(CO)CCc1ccc(Sc2cccc(OCc3ccccc3)c2)cc1Cl"
category_label = "t"

[[record]]
compound = "O=C(OCC#CCSc1nnc(-c2cccc3ccccc23)o1)c1cc2ccccc2s1"
category_label = "t"


input: Given C[N+](C)(C)CC(=O)O , state the outcome it received in this test.
output: f

input: Please state the recorded outcome for this compound: CN(C)CCC=C1c2ccccc2COc2ccc(CC(=O)O)cc21
output: f

input: Returns: the outcome recorded for CCN(CC)CCOc1ccc(C(=C(Cl)c2ccccc2)c2ccccc2)cc1 in this assay.
output: t

input: What outcome does the record of this test show for O=C(O)c1ccc(-c2c[nH]c3ncc(-c4ccccc4)cc23)cc1C1CCCC1 ?
output: f

input: Check the results log: what was the call for Nc1ncnc2c1nc(Cl)n2[C@@H]1O[C@H](CO)[C@@H](O)[C@@H]1O ?
output: t

input: State the result this test recorded for O=c1cc(-c2ccccc2)oc2cc(O)cc(O)c12 .
output: f

input: What did the test return for COc1ccc2cccc(CCNC(C)=O)c2c1 ?
output: f

input: Could you check what this test reported for O=c1cc(N2CCOCC2)oc2c(-c3cccc4c3sc3ccccc34)cccc12 ?
output: t

input: What did the test return for CNC(=O)c1ccc2cc(C3(O)CCn4cncc43)ccc2c1 (configuration not stated) ?
output: f

input: Please let me know the test result on file for NC(=O)c1cccc2[nH]c(-c3ccc([C@H]4CCCN4)cc3F)nc12 .
output: f

input: Entry COc1ccc(-c2cc(=O)c3c(O)cc(O)cc3o2)cc1O : call = ?
output: f

input: Test call for this compound, please: CO[C@H]1C(=O)[C@]2(C)[C@@H](OC)C[C@H]3OC[C@@]3(OC(C)=O)[C@H]2[C@H](OC(=O)c2ccccc2)[C@]2(O)C[C@H](OC(=O)[C@H](O)[C@@H](NC(=O)OC(C)(C)C)c3ccccc3)C(C)=C1C2(C)C
output: f

input: I'd appreciate the recorded outcome for O=C(NCc1ccncc1)C12C[C@H]3C[C@@H](C1)CC(c1ccc(Cl)cc1)(C3)C2 from this test.
output: t

input: Record request — test call for O=C(Nc1c(Cl)cncc1Cl)c1ccc(OC(F)F)c(OCC2CC2)c1
output: f

input: Entry COc1cccc([C@@H](C)NCCCc2ccccc2Cl)c1 : call = ?
output: f

input: // param item: NS(=O)(=O)c1ccc(NC2=CC(=O)c3ccccc3C2=O)cc1 ; yields the recorded call
output: f

input: Check the results log: what was the call for C[C@H]1[C@H](NC(=O)C(=NOC(C)(C)C(=O)O)c2csc(N)n2)C(=O)N1S(=O)(=O)O ?
output: f

input: Entry COC(=O)N[C@H](C(=O)N1CCC[C@@H]1c1ncc(-c2ccc(-c3ccc(-c4cnc([C@@H]5CCCN5C(=O)[C@@H](NC(=O)OC)C(C)C)[nH]4)cc3)cc2)[nH]1)C(C)C : call = ?
output: t

input: Could you check what this test reported for CC#CCn1c(N2CCC[C@@H](N)C2)nc2c1c(=O)n(Cc1nc(C)c3ccccc3n1)c(=O)n2C ?
output: f

Hey, just so you know, these numbers are from PubChem BioAssay (NCATS).
